Molecular target: Amine oxidase [flavin-containing] A (Homo sapiens, UniProt P21397)
Sequence (P21397 whole entry): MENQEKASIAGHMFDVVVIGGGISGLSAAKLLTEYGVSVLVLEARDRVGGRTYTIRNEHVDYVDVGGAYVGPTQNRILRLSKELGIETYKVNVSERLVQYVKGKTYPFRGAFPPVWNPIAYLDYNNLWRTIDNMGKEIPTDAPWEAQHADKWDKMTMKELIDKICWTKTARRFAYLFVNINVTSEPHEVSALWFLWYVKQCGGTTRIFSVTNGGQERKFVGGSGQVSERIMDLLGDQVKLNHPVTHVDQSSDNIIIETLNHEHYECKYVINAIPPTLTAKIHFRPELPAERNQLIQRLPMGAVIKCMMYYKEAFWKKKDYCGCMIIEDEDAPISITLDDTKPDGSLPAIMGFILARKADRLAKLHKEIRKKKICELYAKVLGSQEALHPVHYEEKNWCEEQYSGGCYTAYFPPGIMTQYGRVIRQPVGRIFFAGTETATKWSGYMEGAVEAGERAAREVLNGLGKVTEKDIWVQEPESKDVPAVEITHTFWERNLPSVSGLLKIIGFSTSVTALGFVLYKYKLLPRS
Experiment: Inhibition of human recombinant MAO-A at 0.1 uM using tyramine as substrate preincubated with enzyme for 30 mins followed by incubation with substrate for 30 mins by Amplex Red reagent based fluorometric method relative to control
Conditions: 0.5 h, time 60 min
property_name: inhibition at 0.1 µM (%)

For orientation, consider the following solved cases.
Entry CC(C)Nc1nnc(SCC(=O)N(Cc2cccc([N+](=O)[O-])c2)c2ccc(F)cc2)s1 under Amine oxidase [flavin-containing] A (Homo sapiens, UniProt P21397) had inhibition at 0.1 µM of 43

Entry CC(C)CNc1nnc(SCC(=O)N(Cc2cccc([N+](=O)[O-])c2)c2ccc(F)cc2)s1 under Amine oxidase [flavin-containing] A (Homo sapiens, UniProt P21397) had inhibition at 0.1 µM of 31.8

Entry CCNc1nnc(SCC(=O)N(Cc2cccc([N+](=O)[O-])c2)c2ccc(F)cc2)s1 under Amine oxidase [flavin-containing] A (Homo sapiens, UniProt P21397) had inhibition at 0.1 µM of 42.1

Entry O=C(NCCN1CCOCC1)c1ccc(Cl)cc1 [MOCLOBEMIDE] under Amine oxidase [flavin-containing] A (Homo sapiens, UniProt P21397) had inhibition at 0.1 µM of 24.5

I: CCCCNc1nnc(SCC(=O)N(Cc2cccc([N+](=O)[O-])c2)c2ccc(F)cc2)s1
II: COCCNc1nnc(SCC(=O)N(Cc2cccc([N+](=O)[O-])c2)c2ccc(F)cc2)s1
Sorting ascending by inhibition at 0.1 µM, which comes first: I or II ? Respond using the label that marks the chosen record.
I

Values were extracted from ChEMBL document CHEMBL4699429.
